# experimentalSystem: CDK19 (Homo sapiens, UniProt Q9BWU1)
# Sequence (Q9BWU1 whole entry, species assumed): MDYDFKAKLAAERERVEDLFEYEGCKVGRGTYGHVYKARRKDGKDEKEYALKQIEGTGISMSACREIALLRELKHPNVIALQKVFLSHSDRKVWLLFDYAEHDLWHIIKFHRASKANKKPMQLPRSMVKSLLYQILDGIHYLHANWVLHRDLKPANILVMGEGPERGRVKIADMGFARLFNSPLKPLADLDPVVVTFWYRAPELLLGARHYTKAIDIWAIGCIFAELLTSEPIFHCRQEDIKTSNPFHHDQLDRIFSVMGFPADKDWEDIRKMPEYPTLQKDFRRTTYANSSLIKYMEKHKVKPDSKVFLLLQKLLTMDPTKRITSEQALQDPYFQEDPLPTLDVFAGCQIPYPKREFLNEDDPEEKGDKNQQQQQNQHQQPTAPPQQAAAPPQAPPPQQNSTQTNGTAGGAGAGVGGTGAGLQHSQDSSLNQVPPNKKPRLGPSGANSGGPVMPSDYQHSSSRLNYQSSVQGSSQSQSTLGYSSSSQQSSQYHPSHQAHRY
# Sequence (P24863 whole entry partner, species assumed): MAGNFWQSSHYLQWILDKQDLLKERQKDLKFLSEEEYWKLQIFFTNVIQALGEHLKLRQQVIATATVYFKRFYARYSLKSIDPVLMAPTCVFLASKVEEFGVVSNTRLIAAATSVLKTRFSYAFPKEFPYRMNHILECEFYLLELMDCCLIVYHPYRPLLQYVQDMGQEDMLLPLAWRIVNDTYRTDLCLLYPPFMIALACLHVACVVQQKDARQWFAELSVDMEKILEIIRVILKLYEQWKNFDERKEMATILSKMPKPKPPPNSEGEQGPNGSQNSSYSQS
readoutKind: IC50 (nM)
Express the result in nM but write the number alone.

Which measured IC50 belongs to "Cc1cccc(-c2n[nH]cc2-c2ccc3ncccc3n2)n1" , tested on CDK19 (Homo sapiens, UniProt Q9BWU1)?
66.1

* * *

# experimentalSystem: RIPK2 (Homo sapiens, UniProt O43353)
# Sequence (O43353 whole entry, species assumed): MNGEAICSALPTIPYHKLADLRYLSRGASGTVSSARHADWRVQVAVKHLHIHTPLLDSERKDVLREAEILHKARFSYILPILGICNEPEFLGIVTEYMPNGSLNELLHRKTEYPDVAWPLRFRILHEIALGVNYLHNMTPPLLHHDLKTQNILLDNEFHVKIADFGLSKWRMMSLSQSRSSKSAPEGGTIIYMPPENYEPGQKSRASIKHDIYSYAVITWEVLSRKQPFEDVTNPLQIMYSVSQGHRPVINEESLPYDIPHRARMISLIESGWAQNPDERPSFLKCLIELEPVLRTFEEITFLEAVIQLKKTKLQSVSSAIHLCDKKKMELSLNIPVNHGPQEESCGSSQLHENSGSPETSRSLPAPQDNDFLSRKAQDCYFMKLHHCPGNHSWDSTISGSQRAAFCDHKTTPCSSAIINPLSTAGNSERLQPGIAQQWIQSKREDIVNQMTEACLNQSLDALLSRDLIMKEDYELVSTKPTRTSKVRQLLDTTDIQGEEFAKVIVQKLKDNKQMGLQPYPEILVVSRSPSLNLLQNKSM
readoutKind: pIC50
Scale for pIC50: -log10 of concentration given in mol/L; no unit attached.

I'm curious: which pIC50 was measured for Cc1cccc(-c2n[nH]cc2-c2ccc3ncccc3n2)n1 [ALK5iII] tested on RIPK2 (Homo sapiens, UniProt O43353)?
6.82

* * *

# experimentalSystem: TGFBR2 (Homo sapiens, UniProt P37173)
# Sequence (P37173 23-567, species assumed): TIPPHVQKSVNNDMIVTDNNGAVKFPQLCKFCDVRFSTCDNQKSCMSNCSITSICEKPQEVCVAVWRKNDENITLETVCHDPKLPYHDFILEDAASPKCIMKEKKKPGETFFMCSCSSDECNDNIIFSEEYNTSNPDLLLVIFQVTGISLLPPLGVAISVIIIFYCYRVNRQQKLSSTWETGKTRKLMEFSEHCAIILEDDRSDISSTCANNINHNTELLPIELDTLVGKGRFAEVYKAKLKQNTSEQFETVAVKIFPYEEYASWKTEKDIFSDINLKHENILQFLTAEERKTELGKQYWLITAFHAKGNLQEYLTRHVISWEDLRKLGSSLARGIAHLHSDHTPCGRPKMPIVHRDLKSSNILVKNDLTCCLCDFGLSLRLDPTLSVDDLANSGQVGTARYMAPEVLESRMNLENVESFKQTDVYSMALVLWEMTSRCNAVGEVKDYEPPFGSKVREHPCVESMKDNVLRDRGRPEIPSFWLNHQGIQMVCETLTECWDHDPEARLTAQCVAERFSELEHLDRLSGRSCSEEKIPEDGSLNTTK
# protocolText: biochemical
readoutKind: IC50 (nM)
Quick reminder: number only, in nM, skip the unit.

Notebook entry, TGFBR2 (Homo sapiens, UniProt P37173) assay: IC50 of "Cc1cccc(-c2n[nH]cc2-c2ccc3ncccc3n2)n1" = ?
107

Values from paper PMC9814340
